# TARGET_OR_SYSTEM: Ataxin-2 (Homo sapiens) (UniProt Q99700)
# Sequence (Q99700 whole entry): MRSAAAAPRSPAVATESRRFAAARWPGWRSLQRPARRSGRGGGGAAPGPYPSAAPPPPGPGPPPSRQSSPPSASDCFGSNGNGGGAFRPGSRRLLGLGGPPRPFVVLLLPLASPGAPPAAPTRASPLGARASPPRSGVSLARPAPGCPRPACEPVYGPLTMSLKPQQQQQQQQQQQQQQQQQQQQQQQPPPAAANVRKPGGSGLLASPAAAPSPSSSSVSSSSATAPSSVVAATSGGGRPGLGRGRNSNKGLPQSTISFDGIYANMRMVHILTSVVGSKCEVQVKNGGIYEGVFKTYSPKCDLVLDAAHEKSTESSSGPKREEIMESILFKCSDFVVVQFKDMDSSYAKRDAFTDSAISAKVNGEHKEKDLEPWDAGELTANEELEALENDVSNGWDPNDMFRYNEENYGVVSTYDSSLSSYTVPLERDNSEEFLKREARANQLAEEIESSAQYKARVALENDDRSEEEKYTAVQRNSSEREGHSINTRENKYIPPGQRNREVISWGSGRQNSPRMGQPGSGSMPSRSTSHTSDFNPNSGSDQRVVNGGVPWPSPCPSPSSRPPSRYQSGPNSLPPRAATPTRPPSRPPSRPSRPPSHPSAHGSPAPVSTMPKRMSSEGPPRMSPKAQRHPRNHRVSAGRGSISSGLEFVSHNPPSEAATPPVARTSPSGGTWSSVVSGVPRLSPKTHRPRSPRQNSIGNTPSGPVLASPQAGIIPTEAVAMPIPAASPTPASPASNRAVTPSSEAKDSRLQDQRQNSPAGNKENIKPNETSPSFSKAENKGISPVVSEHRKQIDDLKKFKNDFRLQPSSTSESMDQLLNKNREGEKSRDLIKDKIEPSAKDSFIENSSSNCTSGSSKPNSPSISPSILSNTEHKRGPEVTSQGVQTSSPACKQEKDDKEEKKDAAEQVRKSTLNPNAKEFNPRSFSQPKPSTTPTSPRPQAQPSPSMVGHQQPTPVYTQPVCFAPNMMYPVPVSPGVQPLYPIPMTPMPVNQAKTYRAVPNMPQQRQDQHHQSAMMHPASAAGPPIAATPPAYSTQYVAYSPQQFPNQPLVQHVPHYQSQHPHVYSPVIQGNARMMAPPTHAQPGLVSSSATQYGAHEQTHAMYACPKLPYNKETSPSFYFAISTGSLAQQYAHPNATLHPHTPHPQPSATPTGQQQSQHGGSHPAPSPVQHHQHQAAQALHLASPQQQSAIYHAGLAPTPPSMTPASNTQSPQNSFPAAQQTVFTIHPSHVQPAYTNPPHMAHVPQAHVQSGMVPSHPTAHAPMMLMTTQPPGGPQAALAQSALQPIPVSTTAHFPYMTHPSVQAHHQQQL
# TEST_DESCRIPTION: qHTS for Inhibitors of ATXN expression.
# Type: functional
The whole screen tested about 400,000 compounds, of which about 2,100 (0.53%) were called active. Not shown: some 14% with an inconclusive outcome. How the calls were made is not given here. For the sample, actives were picked, then their nearest neighbours and some compounds at random.
Pick from active, inactive when you respond.

Call for entry CCCN(CCC)CCCNC(=O)c1cc2c(=O)n(CC)c3ccccc3c2s1 :
inactive

Call for entry CCOCCCn1c(=N)c(C(=O)NC(C)c2ccccc2)cc2c(=O)n3cccc(C)c3nc21 (stereo unspecified) :
inactive

Call for entry CCN(C(=O)Cc1c(C(=O)O)n(CC)c2ccccc12)c1ccccc1C :
inactive

Call for entry COCCN(CCOC)C(=O)c1cc2c(=O)n3ccccc3nc2s1 :
inactive

Call for entry CCOc1ccccc1N(C)C(=O)c1cc2c(=O)n(CC)c3ccccc3c2s1 :
active

Call for entry Cc1cc(CNC(=O)c2cccc([N+](=O)[O-])c2C)c2ccccc2n1 :
inactive

====

# TARGET_OR_SYSTEM: Ataxin-2 (Homo sapiens) (UniProt Q99700)
# TEST_DESCRIPTION: qHTS for Inhibitors of ATXN expression.
# Assay type: functional
In all, about 400,000 compounds went through this assay and about 2,100 (0.53%) were called active. Another 14% or so got no clear call; they are omitted. Only a selection was taken, and actives are over-represented in it overall.
QUANTITY: Potency

[[record]]
molecule = "CSc1nnc(NC(=O)c2nc(S(=O)(=O)Cc3ccccc3)ncc2Cl)s1"
target_or_system = "Ataxin-2 (Homo sapiens) (UniProt Q99700)"
readout_value = "28.2 µM (active)"

[[record]]
molecule = "C(=N\\Nc1nc(-c2cccnc2)nc2ccccc12)/c1ccccc1"
target_or_system = "Ataxin-2 (Homo sapiens) (UniProt Q99700)"
readout_value = "inactive"

[[record]]
molecule = "CC(Sc1ccccc1)C(=O)NN=C1CCCCCCC1 (stereo not given)"
target_or_system = "Ataxin-2 (Homo sapiens) (UniProt Q99700)"
readout_value = "inactive"

[[record]]
molecule = "Cc1cc(C)cc(-n2c(SCC(N)=O)nc3c(oc4ccccc43)c2=O)c1"
target_or_system = "Ataxin-2 (Homo sapiens) (UniProt Q99700)"
readout_value = "22.4 µM (active)"

[[record]]
molecule = "Cc1ccc(C)c(N2CCN(C(=O)c3ccc(Cn4c(=S)[nH]c5ccc(N6CCOCC6)cc5c4=O)cc3)CC2)c1"
target_or_system = "Ataxin-2 (Homo sapiens) (UniProt Q99700)"
readout_value = "inactive"


Requested read-out Potency, target or system Ataxin-2 (Homo sapiens) (UniProt Q99700), entry O=C1CC(c2ccccc2Cl)=NN(c2ncnc3ccccc23)C1=O
inactive

Requested read-out Potency, target or system Ataxin-2 (Homo sapiens) (UniProt Q99700), entry O=[N+]([O-])c1ccc(-c2nc(Nc3cccc(O)c3)c3ccccc3n2)cc1
31.6 µM (active)

Requested read-out Potency, target or system Ataxin-2 (Homo sapiens) (UniProt Q99700), entry Nc1ccc(-c2nc(-c3ccccc3)nc3ccccc23)cc1
inactive

Requested read-out Potency, target or system Ataxin-2 (Homo sapiens) (UniProt Q99700), entry CC=Cc1cc2c(c(=O)o1)C(=O)C(O)C(C)O2 (stereo not given)
29.9 µM (active)

Requested read-out Potency, target or system Ataxin-2 (Homo sapiens) (UniProt Q99700), entry OC[C@@H]1[C@@H](c2ccccc2)C(c2cccc(Cl)c2)=NN1c1ccccc1
inactive
